# measured_target: Apolipoprotein L1 (Homo sapiens)
# method_summary: Inhibition of APOL1 G1 variant in human HEK293-T-REx cells measured by Thallium assay
Listed next: entries and their corresponding IC50.

The following compounds have reported results that may help.
compound: Cc1cnc(CNC(=O)O[C@H]2C[C@H](c3c(-c4ccc(F)cc4)[nH]c4c(F)cc(F)cc43)C2)o1
measured_target: Apolipoprotein L1 (Homo sapiens)
IC50: > 1000 nM
--
compound: O=C(NC[C@H]1C[C@H](c2c(-c3ccc(F)cc3)[nH]c3c(F)cc(F)cc32)C1)N[C@H]1CC[C@H](O)C1
measured_target: Apolipoprotein L1 (Homo sapiens)
IC50: > 1000 nM
--
compound: Cn1cnc(CNC(=O)C2(C)CC(c3c(-c4ccc(F)cc4)[nH]c4c(F)cc(F)cc34)C2)c1 (centres undefined)
measured_target: Apolipoprotein L1 (Homo sapiens)
IC50: 0.25 nM

Input `C[C@H](CO)NC(=O)[C@H]1C[C@@H](c2c(-c3ccc(F)cc3)[nH]c3c(F)cc(F)cc32)C1` . Output IC50: > 1000 nM
